- assay.text: Oral bioavailability in rat at 1.40 mg/kg
- Format: ADME, organism-based
- test.settings: in vivo, 1.4 mg/kg
The entries below come with measured bioavailability values attached.
Return type: number; implicit unit %.

{"structure.string": "COC(=O)Nc1ccc2c(c1)NC(=O)[C@H](C)CCC[C@H](NC(=O)c1cnn(-c3cccc(Cl)c3F)c1)c1cc-2ccn1.O=C(O)C(F)(F)F", "unit.abbreviation": "%", "bioavailability": 2}

Query compound follows.
Entry COC(=O)Nc1ccc2c(c1)NC(=O)[C@H](C)CCC[C@H](NC(=O)c1cnn(-c3cccc(Cl)c3F)c1N)c1cc-2ccn1.O=C(O)C(F)(F)F.O=C(O)C(F)(F)F has what bioavailability? 4

* * *

- assay.text: Metabolic stability in human liver microsomes assessed as half life
- Type: ADME, Microsome
The threshold is 40 min. Values of half-life beneath it are tagged condition met; values meeting or exceeding it are tagged condition not met.

Solved entries (count: 3):
{"structure.string": "COC(=O)Nc1ccc2c(c1)NC(=O)[C@H](C)CCC[C@H](NC(=O)c1ncn(-c3cccc(Cl)c3F)c1C)c1cc-2ccn1.Cl.Cl", "assigned.category": "condition not met"}
{"structure.string": "COC(=O)Nc1ccc2c(c1)NC(=O)[C@H](C)CCC[C@H](NC(=O)c1cnn(-c3cccc(Cl)c3F)c1N)c1cc-2ccn1.O=C(O)C(F)(F)F.O=C(O)C(F)(F)F", "assigned.category": "condition not met"}
{"structure.string": "COC(=O)Nc1ccc2c(c1)NC(=O)[C@H](C)CCC[C@H](NC(=O)c1c(F)cc(C)cc1F)c1cc-2ccn1", "assigned.category": "condition met"}

Identify whether the compound COC(=O)Nc1ccc2c(c1)NC(=O)[C@H](C)CCC[C@H](NC(=O)c1cnn(-c3cccc(Cl)c3F)c1)c1cc-2ccn1.O=C(O)C(F)(F)F records half-life below 40 min. condition not met

Try this compound too: COC(=O)Nc1ccc2c(c1)NC(=O)[C@H](C)CCC[C@H](NC(=O)c1nnn(-c3cccc(Cl)c3F)c1C)c1cc-2ccn1.Cl condition not met

Try this compound too: CC[C@@H]1CCC[C@H](NC(=O)/C=C/c2cc(Cl)ccc2-n2cnnn2)c2nc(c[nH]2)-c2ccc(NC(=O)OC)cc2NC1=O condition met

* * *

- assay.text: Clearance in rat at 0.55 mg/kg, iv or 1.10 mg/kg, po
- Format: ADME, organism-based
- test.settings: in vivo
assay.readout: clearance

Entry COC(=O)Nc1ccc2c(c1)NC(=O)[C@H](C)CCC[C@H](NC(=O)c1nnn(-c3cccc(Cl)c3F)c1C)c1cc-2ccn1.O=C(O)C(F)(F)F has what clearance? 9 to 21 mL/min/kg

* * *

- assay.text: Oral bioavailability in dog at 0.57 mg/kg
- Type: ADME, organism-based, Canis lupus familiaris
- test.settings: in vivo
assay.readout: bioavailability
Dear colleague, please send the value followed by its unit.

Entry COC(=O)Nc1ccc2c(c1)NC(=O)[C@H](C)CCC[C@H](NC(=O)c1cnn(-c3cccc(Cl)c3F)c1C)c1cc-2ccn1.O=C(O)C(F)(F)F has what bioavailability? 35%

* * *

The entries below come with measured half-life values attached.
- assay.text: Metabolic stability in cynomolgus monkey liver microsomes assessed as half life
- Format: ADME, Macaca fascicularis, Microsome
Dear colleague, please send the value followed by its unit.

Some entries whose results are on file:
{"structure.string": "COC(=O)Nc1ccc2c(c1)NC(=O)[C@H](C)CCC[C@H](NC(=O)c1cnn(-c3cccc(Cl)c3F)c1C)c1cc-2ccn1.Cl", "assay.readout": "half-life", "recorded.result": "54 min"}
{"structure.string": "COC(=O)Nc1ccc2c(c1)NC(=O)[C@H](C)CCC[C@H](NC(=O)c1cnn(-c3cccc(Cl)c3F)c1C)c1nc-2c[nH]1", "assay.readout": "half-life", "recorded.result": "17 min"}
{"structure.string": "COC(=O)Nc1ccc2c(c1)NC(=O)[C@H](C)CCC[C@H](NC(=O)c1ncn(-c3cccc(Cl)c3F)c1C)c1cc-2ccn1.Cl.Cl", "assay.readout": "half-life", "recorded.result": "48 min"}

Query compound follows.
Entry COC(=O)Nc1ccc2c(c1)NC(=O)[C@H](C)CCC[C@H](NC(=O)c1nnn(-c3cccc(Cl)c3F)c1C)c1cc-2ccn1.Cl has what half-life? 75 min

* * *

- assay.text: AUC in dog at 0.57 mg/kg, po
- Format: ADME, organism-based, Canis lupus familiaris
- test.settings: in vivo
assay.readout: AUC (µM·h)
Return type: number; implicit unit µM·h.

Entry COC(=O)Nc1ccc2c(c1)NC(=O)[C@H](C)CCC[C@H](NC(=O)c1cnn(-c3cccc(Cl)c3F)c1C)c1cc-2ccn1.O=C(O)C(F)(F)F has what AUC? 0.266

* * *

- assay.text: Volume of distribution at steady state in cynomolgus monkey at 0.80 mg/kg, iv or 1.58 mg/kg, po
- Format: ADME, organism-based, Macaca fascicularis
- test.settings: in vivo, 0.8 mg/kg, read-out: Vdss
assay.readout: Vd (L/kg)
Return type: number; implicit unit L/kg.

Entry COC(=O)Nc1ccc2c(c1)NC(=O)[C@H](C)CCC[C@H](NC(=O)c1ncn(-c3cccc(Cl)c3F)c1C)c1cc-2ccn1.O=C(O)C(F)(F)F.O=C(O)C(F)(F)F has what Vd? 3.2

* * *

- assay.text: AUC in cynomolgus monkey at 1.33 mg/kg, po
- Format: ADME, organism-based, Macaca fascicularis
- test.settings: in vivo
assay.readout: AUC (nM·h)
Return type: number; implicit unit nM·h.

Entry COC(=O)Nc1ccc2c(c1)NC(=O)[C@H](C)CCC[C@H](NC(=O)c1cnn(-c3cccc(Cl)c3F)c1C)c1cc-2ccn1.O=C(O)C(F)(F)F has what AUC? 69

* * *

- assay.text: Half life in dog at 0.80 mg/kg, iv
- Type: ADME, organism-based, Canis lupus familiaris
- test.settings: in vivo, 0.8 mg/kg
assay.readout: half-life (h)
Return type: number; implicit unit h.

Entry COC(=O)Nc1ccc2c(c1)NC(=O)[C@H](C)CCC[C@H](NC(=O)c1ncn(-c3cccc(Cl)c3F)c1C)c1cc-2ccn1.O=C(O)C(F)(F)F.O=C(O)C(F)(F)F has what half-life? 5

* * *

- assay.text: Oral bioavailability in cynomolgus monkey at 1.52 mg/kg
- Assay type: ADME, organism-based, Macaca fascicularis
- test.settings: in vivo
assay.readout: bioavailability (%)
Return type: number; implicit unit %.

Entry COC(=O)Nc1ccc2c(c1)NC(=O)[C@H](C)CCC[C@H](NC(=O)c1nnn(-c3cccc(Cl)c3F)c1C)c1cc-2ccn1.O=C(O)C(F)(F)F has what bioavailability? 15

* * *

- assay.text: Clearance in cynomolgus monkey at 0.80 mg/kg, iv or 1.58 mg/kg, po
- Assay type: ADME, organism-based, Macaca fascicularis
- test.settings: in vivo, 0.8 mg/kg
assay.readout: clearance (mL/min/kg)
Return type: number; implicit unit mL/min/kg.

Entry COC(=O)Nc1ccc2c(c1)NC(=O)[C@H](C)CCC[C@H](NC(=O)c1ncn(-c3cccc(Cl)c3F)c1C)c1cc-2ccn1.O=C(O)C(F)(F)F.O=C(O)C(F)(F)F has what clearance? 14.5

* * *

- assay.text: Volume of distribution at steady state in cynomolgus monkey at 0.71 mg/kg, iv or 1.52 mg/kg, po
- Format: ADME, organism-based, Macaca fascicularis
- test.settings: in vivo, read-out: Vdss
assay.readout: Vd (L/kg)
Return type: number; implicit unit L/kg.

Entry COC(=O)Nc1ccc2c(c1)NC(=O)[C@H](C)CCC[C@H](NC(=O)c1nnn(-c3cccc(Cl)c3F)c1C)c1cc-2ccn1.O=C(O)C(F)(F)F has what Vd? 2.9

* * *

- assay.text: Volume of distribution at steady state in rat at 1.13 mg/kg, iv or 2.27 mg/kg, po
- Format: ADME, organism-based
- test.settings: in vivo, read-out: Vdss
assay.readout: Vd (L/kg)
Return type: number; implicit unit L/kg.

Entry COC(=O)Nc1ccc2c(c1)NC(=O)CCCC[C@H](NC(=O)/C=C/c1cc(Cl)ccc1-n1cnnn1)c1nc-2c[nH]1 has what Vd? 0.3

* * *

- assay.text: Volume of distribution at steady state in rat at 0.50 mg/kg, iv or 1.0 mg/kg, po
- Type: ADME, organism-based
- test.settings: in vivo, 0.5 mg/kg, read-out: Vdss
assay.readout: Vd
Dear colleague, please send the value followed by its unit.

Entry COC(=O)Nc1ccc2c(c1)NC(=O)[C@H](C)CCC[C@H](NC(=O)/C=C/c1cc(Cl)ccc1-n1cnnn1)c1cc-2ccn1.O=C(O)C(F)(F)F has what Vd? 3.4 L/kg

* * *

- assay.text: AUC in dog at 0.62 mg/kg, po
- Type: ADME, organism-based, Canis lupus familiaris
- test.settings: in vivo
assay.readout: AUC (µM·h)
Return type: number; implicit unit µM·h.

Entry COC(=O)Nc1ccc2c(c1)NC(=O)[C@H](C)CCC[C@H](NC(=O)c1nnn(-c3cccc(Cl)c3F)c1C)c1cc-2ccn1.O=C(O)C(F)(F)F has what AUC? 0.922
